# assay.info: physchem
# measurement.conditions: pKa
molecules and their reported pKa

Inquiry: So what's the measured pKa for this one? C[C@H](C1CC1C(=O)O)[C@H]1CC[C@H]2[C@@H]3[C@@H](O)C[C@@H]4C[C@H](O)CC[C@]4(C)[C@H]3CC[C@]12C (single isomer, unassigned) [Isom. A, 22,23-methanate-ursodeoxycholic acid]
Reply text: 5.03

New cases:
Inquiry: So what's the measured pKa for this one? C[C@H](CCC(=O)O)[C@H]1CC[C@H]2[C@@H]3[C@@H](O)C[C@H]4C[C@H](O)CC[C@]4(C)[C@H]3CC[C@]12C [UDCA, 3α, 7β-dihydroxy-5α-cholan-24-oic acid, reference compound]
Reply text: 5.06

----------
# Assay type: physicochemical
# Excerpt: The [α]D, pKa, the retention factor and the critical micellar concentrations (CMC), important because related to the capacity to form micelles in the bile and function of the hydrophilic/lipophilic balance, have been determined on the A, B, C, D isomers of 22,23-methanate-ursodeoxycholic acid. The CMCs have been measured by the method of the solubilization of insoluble dyes such as Azulene and Orange OT (Roda et al., J. Biol. Chem., in press).
compounds and their reported CMC (H2O)

Inquiry: So what's the measured CMC (H2O) for this one? C[C@H](C1CC1C(=O)O)[C@H]1CC[C@H]2[C@@H]3[C@@H](O)C[C@@H]4C[C@H](O)CC[C@]4(C)[C@H]3CC[C@]12C (single isomer, unassigned) [Isom. B, 22,23-methanate-ursodeoxycholic acid]
Reply text: 20 mM

Inquiry: So what's the measured CMC (H2O) for this one? C[C@H](C1CC1C(=O)O)[C@H]1CC[C@H]2[C@@H]3[C@@H](O)C[C@@H]4C[C@H](O)CC[C@]4(C)[C@H]3CC[C@]12C (single isomer, unassigned) [Isom. A, 22,23-methanate-ursodeoxycholic acid]
Reply text: 25 mM

Inquiry: So what's the measured CMC (H2O) for this one? C[C@H](C1CC1C(=O)O)[C@H]1CC[C@H]2[C@@H]3[C@@H](O)C[C@@H]4C[C@H](O)CC[C@]4(C)[C@H]3CC[C@]12C (single isomer, unassigned) [Isom. D, 22,23-methanate-ursodeoxycholic acid]
Reply text: 10 mM

Inquiry: So what's the measured CMC (H2O) for this one? C[C@H](C1CC1C(=O)O)[C@H]1CC[C@H]2[C@@H]3[C@@H](O)C[C@@H]4C[C@H](O)CC[C@]4(C)[C@H]3CC[C@]12C (single isomer, unassigned) [Isom. C, 22,23-methanate-ursodeoxycholic acid]
Reply text: 14 mM

Inquiry: So what's the measured CMC (H2O) for this one? C[C@H](CCC(=O)O)[C@H]1CC[C@H]2[C@@H]3[C@@H](O)C[C@H]4C[C@H](O)CC[C@]4(C)[C@H]3CC[C@]12C [UDCA, 3α, 7β-dihydroxy-5α-cholan-24-oic acid, reference compound]
Reply text: 19 mM

----------
# assay.info: physchem
# measurement.conditions: c18 hplc, methanol/water, pH 5.7, K' (retention factor)
measure: chromatographic logD
Could you keep your reply to the number by itself?

Inquiry: So what's the measured chromatographic logD for this one? C[C@H](CCC(=O)O)[C@H]1CC[C@H]2[C@@H]3[C@@H](O)C[C@H]4C[C@H](O)CC[C@]4(C)[C@H]3CC[C@]12C [UDCA, 3α, 7β-dihydroxy-5α-cholan-24-oic acid, reference compound]
Reply text: -0.0223
